# Tested on: NS5A chimeric genotype 1b Con1 replicon with genotype 3a S52 strain NS5A gene
# assay remarks: Replicon assay, genotype 3a NS5A chimera
# Format: cell-based, HCV
# particulars: Hepatitis C virus, read-out: 3a (s) (nM), genotype 3a NS5A chimeric replicon, stable replicon cells (s)
measured property: EC50
Report the figure along with its unit, number first.

Query string: Request: EC50, test system NS5A chimeric genotype 1b Con1 replicon with genotype 3a S52 strain NS5A gene, entry CC[C@H]1CC[C@@H](c2nc3ccc4cc5c(cc4c3[nH]2)OCc2cc(-c3cnc([C@@H]4CC[C@H](C)N4C(=O)[C@@H](NC(=O)OC)C(C)C)[nH]3)ccc2-5)N1C(=O)[C@@H](NC(=O)OC)[C@@H](C)O
Result string: 0.271 nM

Query string: Identify the measured EC50 of CC[C@H]1CC[C@@H](c2nc3ccc4cc5c(cc4c3[nH]2)OCc2cc(-c3cnc([C@@H]4CC[C@H](C)N4C(=O)[C@@H](NC(=O)OC)C(C)C)[nH]3)ccc2-5)N1C(=O)[C@@H](NC(=O)OC)C(C)C for NS5A chimeric genotype 1b Con1 replicon with genotype 3a S52 strain NS5A gene.
Result string: 0.35 nM

Query string: Please provide the recorded EC50 for COC(=O)N[C@H](C(=O)N1[C@@H](C)CC[C@H]1c1nc2ccc3cc4c(cc3c2[nH]1)OCc1cc(-c2cnc([C@@H]3C[C@H](F)CN3C(=O)[C@@H](NC(=O)OC)[C@@H](C)OC)[nH]2)ccc1-4)C(C)C , tested on NS5A chimeric genotype 1b Con1 replicon with genotype 3a S52 strain NS5A gene.
Result string: 0.083 nM

Query string: Entry COC(=O)N[C@H](C(=O)N1C[C@H]2C[C@H]2[C@H]1c1ncc(-c2ccc3c(c2)COc2cc4c(ccc5nc([C@@H]6CC[C@H](C)N6C(=O)[C@@H](NC(=O)OC)C(C)C)[nH]c54)cc2-3)[nH]1)C(C)C , system NS5A chimeric genotype 1b Con1 replicon with genotype 3a S52 strain NS5A gene: what EC50 was measured?
Result string: 0.047 nM

Query string: Which EC50 is reported with NS5A chimeric genotype 1b Con1 replicon with genotype 3a S52 strain NS5A gene for this entry: CC[C@H]1CC[C@@H](c2nc3ccc4cc5c(cc4c3[nH]2)OCc2cc(-c3cnc([C@@H]4CC[C@H](CC)N4C(=O)[C@@H](NC(=O)OC)C4CCOCC4)[nH]3)ccc2-5)N1C(=O)[C@@H](NC(=O)OC)C(C)C ?
Result string: 0.701 nM

Query string: Notebook: pull reported EC50 for NS5A chimeric genotype 1b Con1 replicon with genotype 3a S52 strain NS5A gene, entry COC[C@H]1C[C@@H](c2nc3ccc4cc5c(cc4c3[nH]2)OCc2cc(-c3cnc([C@@H]4CC[C@H](C)N4C(=O)[C@@H](NC(=O)OC)C(C)C)[nH]3)ccc2-5)N(C(=O)[C@@H](NC(=O)OC)C2CCOCC2)C1
Result string: 0.12 nM

Query string: I'm curious: which EC50 was measured for COC[C@H]1C[C@@H](c2ncc(-c3ccc4c(c3)COc3cc5c(ccc6nc([C@@H]7CC[C@H](C)N7C(=O)[C@@H](NC(=O)OC)[C@@H](C)OC)[nH]c65)cc3-4)[nH]2)N(C(=O)[C@@H](NC(=O)OC)[C@@H](C)OC)C1 tested on NS5A chimeric genotype 1b Con1 replicon with genotype 3a S52 strain NS5A gene?
Result string: 0.243 nM

Query string: Tell me reported EC50 for CC[C@H](C)[C@H](NC(=O)OC)C(=O)N1[C@@H](C)CC[C@H]1c1nc2ccc3cc4c(cc3c2[nH]1)OCc1cc(-c2cnc([C@@H]3CC[C@H](C)N3C(=O)[C@@H](NC(=O)OC)C3CCOCC3)[nH]2)ccc1-4 , tested with NS5A chimeric genotype 1b Con1 replicon with genotype 3a S52 strain NS5A gene.
Result string: 0.02 nM

Query string: Under NS5A chimeric genotype 1b Con1 replicon with genotype 3a S52 strain NS5A gene: EC50 value of COC[C@H](NC(=O)OC)C(=O)N1[C@@H](C)CC[C@H]1c1nc2ccc3cc4c(cc3c2[nH]1)OCc1cc(-c2cnc([C@@H]3CC[C@H](C)N3C(=O)[C@@H](NC(=O)OC)C(C)C)[nH]2)ccc1-4 ?
Result string: 0.072 nM
